From: patent US20210292393A1

Catalogue of kon readings, one per entry.
- tested_system: SARS-CoV-2 spike (S) protein (SARS-CoV-2, UniProt P0DTC2 14-1208)
Write the number in M⁻¹ s⁻¹ without appending the unit.

Worked cases, kon given:
INSERT INTO results (binder, test_readout, experimental_result) VALUES
  ('antibody 308 (antibody, V domains shown) VH: QLQLQESGPGLVKPSETLSLTCSVSGGSISSSSYHWGWIRQPPGKGLEWIGSIYYSGSTYYNPSLKSRVTISVDTSKNQFSLKLRSVTAADTAVYYCAGLRVVITFGGVIPKGGAFDIWGQGTMVTVSS VL: QSALTQPASVSGSPGQSITISCTGTSSDVGGYNYVSWYQQHPGKAPKLMIYDVSNRPSGVSNRFSGSKSGNTASLTISGLQAEDEADYYCSSYTSSSTVVFGGGTKLTVL', 'kon', 139000),
  ('antibody 291 (antibody, V domains shown) VH: QVQLVESGGGVVQPGRSLRLSCAASGFTFSSYAMHWVRQAPGKGLEWVAVISYDGSNKYYADSVKGRFTISRDNSKNTLYLQMNSLRAEDTAVYYCARASGGSYFGGMDVWGQGTTVTVSS VL: QSALTQPASVSGSPGQSITISCTGTSSDVGGYNYVSWYQQHPGKAPKLMIYEVSNRPSGVSNRFSGSKSGNTASLTISGLQAEDEADYYCSSYTSSSTLYVFGTGTKVTVL', 'kon', 464000);

Consider now this further binder.
Q) Give the measured kon of antibody 381 (antibody, V domains shown) VH: QVQLVESGGGVVQPGRSLRLSCAASGFTFSSYAMHWVRQAPGKGLEWVAVISYDGSNKYYADSVKGRFTISRDNSKNTLYLQMNSLRAEDTAVYYCARDRQYYDILTGYYLPTSEYYFDYWGQGTLVTVSS VL: DIQMTQSPSSVSASVGDRVTITCRASQGISSWLAWYQQKPGKAPKLLIYAASSLQSGVPSRFSGSGSGTDFTLTISSLQPEDFATYYCQQANSFPPTFGGGTKVEIK .
A) 31100
